Test system: OVCAR4
Assay: Euclidean distance of Cell Painting phenotypic profile (signed KS, 77 features) to DMSO centroid (dimensionless distance); 5 or 10 uM (library dependent); higher = stronger phenotypic change vs DMSO (phenoactivity)
Conditions: 48 h
Result type: Euclidean distance

>  <Molecule>
Cc1cccc(Nc2ccccc2C(=O)O)c1C

>  <Euclidean distance>
0.64

$$$$
>  <Molecule>
CN1CC[C@H](c2c(O)cc(O)c3c(=O)cc(-c4ccccc4Cl)oc23)[C@H](O)C1

>  <Euclidean distance>
3.72

$$$$
>  <Molecule>
O=S(=O)(O)CCS

>  <Euclidean distance>
1.22

$$$$
>  <Molecule>
CNCCc1ccccn1 [Betahistine]

>  <Euclidean distance>
0.854

$$$$
>  <Molecule>
C[C@@H]1C[C@H]2[C@@H]3C[C@H](F)C4=CC(=O)C=C[C@]4(C)[C@@]3(F)[C@@H](O)C[C@]2(C)[C@@]1(OC(=O)c1ccco1)C(=O)SCF [fluticasone furoate]

>  <Euclidean distance>
1.72

$$$$

Quickly give me recorded Euclidean distance for CS(=O)(=O)N1CCc2c(-c3cnc(N)nc3)nc(N3CCOCC3)nc21
2.01

Quickly give me recorded Euclidean distance for CCCCCCOC(=O)NC(=N)c1ccc(NCc2nc3cc(C(=O)N(CCC(=O)OCC)c4ccccn4)ccc3n2C)cc1 [Dabigatran Etexilate]
1.47

Quickly give me recorded Euclidean distance for C[C@]12CCCN1CC1=NNC(=O)c3cc(F)cc4[nH]c2c1c34
1.71

* * *

System: DU145
Test: Euclidean distance of Cell Painting phenotypic profile (signed KS, 77 features) to DMSO centroid (dimensionless distance); 5 or 10 uM (library dependent); higher = stronger phenotypic change vs DMSO (phenoactivity)
Details: 48 h
Where a name gives a salt, the structure may show the parent alone.
Record T whenever Euclidean distance is at 1 or higher; record F when lower.

>  <Compound>
Cn1cnc([N+](=O)[O-])c1Sc1ncnc2[nH]cnc12

>  <Label value>
T

$$$$
>  <Compound>
Clc1ccc(CCCOCCCN2CCCCC2)cc1 [Pitolisant hydrochloride]

>  <Label value>
F

$$$$
>  <Compound>
Cc1cc(C(=O)Nc2nc3cccc(Cl)c3n2[C@@H]2CCCCN(C(=O)/C=C/CN(C)C)C2)ccn1 [Nazartinib (EGF816. NVS-816)]

>  <Label value>
T

$$$$

Euclidean distance >= 1 for Cc1ccc(C(=O)Nc2ccc(CN3CCN(C)CC3)c(C(F)(F)F)c2)cc1C#Cc1cnc2cccnn12 ?
T

Euclidean distance >= 1 for COc1cc(N)c(Cl)cc1C(=O)NC1CCN(Cc2ccccc2)CC1 [Clebopride (malate)] ?
T

Euclidean distance >= 1 for CC1=CC(=O)c2ccccc2C1=O ?
F

Euclidean distance >= 1 for COC(=O)Nc1ccc(-c2nc(N3CCOCC3)c3cnn(C4CCN(C(=O)OC)CC4)c3n2)cc1 ?
T

Euclidean distance >= 1 for CN(C)CCCN1c2ccccc2Sc2ccc(C(F)(F)F)cc21 [Triflupromazine hydrochloride] ?
T

* * *

As shown below, each of these compounds has a reported Euclidean distance value.
System: OVCAR4
Assay: Euclidean distance of Cell Painting phenotypic profile (signed KS, 77 features) to DMSO centroid (dimensionless distance); 5 or 10 uM (library dependent); higher = stronger phenotypic change vs DMSO (phenoactivity)
Conditions: 48 h
Counter-ions that a name gives are not always drawn.
Form: value (number only, do not type unit).

Consider the worked cases shown below.
>  <Compound>
N#CCCCSC(=N)N [Kevetrin hydrochloride]

>  <System>
OVCAR4

>  <Euclidean distance>
0.902

$$$$
>  <Compound>
CN1CCc2c(c3ccccc3n2Cc2ccc(C(=O)NO)cc2)C1 [Tubastatin A HCl]

>  <System>
OVCAR4

>  <Euclidean distance>
0.657

$$$$

Find the measured Euclidean distance of CC(C(=O)O)c1cccc(Oc2ccccc2)c1 (centres undefined) [Fenoprofen Calcium] with OVCAR4 as test system.
1.97

Find the measured Euclidean distance of COc1cc(N)c(Cl)cc1C(=O)NC1CCN(Cc2ccccc2)CC1 [Clebopride (malate)] with OVCAR4 as test system.
0.852

Find the measured Euclidean distance of C[C@@H](O)[C@H]1C(=O)N2C(C(=O)[O-])=C(SC3Cn4cnc[n+]4C3)[C@H](C)[C@H]12 (some centres undefined) with OVCAR4 as test system.
0.838

Find the measured Euclidean distance of Cc1nnc(NS(=O)(=O)c2ccc(N)cc2)s1 with OVCAR4 as test system.
1.11

Find the measured Euclidean distance of CN(C/C=C/C#CC(C)(C)C)Cc1cccc2ccccc12 with OVCAR4 as test system.
1.18

Find the measured Euclidean distance of COCC(=O)Nc1cc(Sc2ccccc2)ccc1N=C(NC(=O)OC)NC(=O)OC with OVCAR4 as test system.
1.15

Find the measured Euclidean distance of C[C@H]1CO[C@@H]2Cn3cc(C(=O)NCc4ccc(F)cc4F)c(=O)c(O)c3C(=O)N12 with OVCAR4 as test system.
0.809
